Each entry below carries its recorded GI50.
Test system: OVCAR-8
Experiment: NCI tumour cell line growth inhibition, 48 h
The source made the active and inactive calls. Rule as the data show it: active = GI50 up to about 1.1 µM and inactive = higher.
measure: GI50

{"compound": "N#C[C@H](OC1OC(COC2OC(CO)C(O)C(O)C2O)C(O)C(O)C1O)c1ccccc1 (stereo not given in full)", "measure": "GI50", "result": "> 250 µM (inactive)"}
{"compound": "C=C(CC(=O)Nc1ccc(C(=O)OC)o1)C(=O)OC", "measure": "GI50", "result": "36.9 µM (inactive)"}
{"compound": "O=C(COC(=O)c1cccc2c(=O)c3ccccc3[nH]c12)Nc1ccccc1", "measure": "GI50", "result": "37 µM (inactive)"}
{"compound": "CCCCCC(C)SC1(C(=O)OC)CC(OC(C)=O)C(NC(C)=O)C([C@H](OC(C)=O)[C@@H](COC(C)=O)OC(C)=O)O1 (stereo not given in full)", "measure": "GI50", "result": "83.2 µM (inactive)"}
{"compound": "C[n+]1c2ccccc2c(/C=N\\NS(=O)(=O)c2ccc(O)c(C(=O)O)c2)c2ccccc21", "measure": "GI50", "result": "43.7 µM (inactive)"}
